Target: Mu-type opioid receptor (Cavia porcellus)
Sequence (P97266 whole entry): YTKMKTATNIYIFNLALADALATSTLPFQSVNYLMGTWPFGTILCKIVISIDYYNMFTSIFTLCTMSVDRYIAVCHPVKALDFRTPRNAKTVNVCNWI
Provide the recorded log10 Ki for the entries that follow.
Please interpret these as log10 of Ki where Ki is in nM.

Param item: CCC/C=C/c1cc2c(n1C)[C@@H]1Oc3c(O)ccc4c3[C@@]13CCN(CC1CC1)[C@H](C4)[C@]3(O)C2 ; param system: Mu-type opioid receptor (Cavia porcellus); output log10 Ki: 0.77

Form: item Cn1c(/C=C/C(=O)Cc2ccccc2)cc2c1[C@@H]1Oc3c(O)ccc4c3[C@@]13CCN(CC1CC1)[C@H](C4)[C@]3(O)C2 ; test system Mu-type opioid receptor (Cavia porcellus); log10 Ki: 0.82

Kindly note: Mu-type opioid receptor (Cavia porcellus), Cn1c(CCC(=O)CCc2ccccc2)cc2c1[C@@H]1Oc3c(O)ccc4c3[C@@]13CCN(CC1CC1)[C@H](C4)[C@]3(O)C2 , log10 Ki value reported: -0.26

Entry Cn1c(/C=C/c2ccccc2)cc2c1[C@@H]1Oc3c(O)ccc4c3[C@@]13CCN(CC1CC1)[C@H](C4)[C@]3(O)C2 under Mu-type opioid receptor (Cavia porcellus) had log10 Ki of 0.25

Case Cc1occc1C(=O)/C=C/c1cc2c(n1C)[C@@H]1Oc3c(O)ccc4c3[C@@]13CCN(CC1CC1)[C@H](C4)[C@]3(O)C2 , Mu-type opioid receptor (Cavia porcellus), log10 Ki recorded as 0.79

Item Cn1c(/C=C/C(=O)CCc2ccccc2)cc2c1[C@@H]1Oc3c(O)ccc4c3[C@@]13CCN(CC1CC1)[C@H](C4)[C@]3(O)C2 ; assay system Mu-type opioid receptor (Cavia porcellus); log10 Ki reported as 0.84

Lab entry: Mu-type opioid receptor (Cavia porcellus) assay, molecule Cn1c(/C=C/C(=O)c2ccccc2)cc2c1[C@@H]1Oc3c(O)ccc4c3[C@@]13CCN(CC1CC1)[C@H](C4)[C@]3(O)C2 , log10 Ki = 0.58

Summary line: CCCCCC(=O)/C=C/c1cc2c(n1C)[C@@H]1Oc3c(O)ccc4c3[C@@]13CCN(CC1CC1)[C@H](C4)[C@]3(O)C2 , Mu-type opioid receptor (Cavia porcellus), reported log10 Ki = 1.18
